These data points were gathered from patent US12606543B2.

Remaining Percentage values, listed per item
- Experiment: Liver microsomes stability, rat
- Type: in vitro ADME
- Assay setup: rat liver microsomes, With Cofactors, 30 min
- Procedure: The objective of this study was to estimate in vitro metabolic stability of exemplary compounds of Formula (I) or a pharmaceutically acceptable salt, solvate, and/or prodrug thereof in pooled human, male rat, and male mouse liver microsomes. The concentrations of compounds in reaction systems were evaluated by LC-MS/MS for estimating the stability in pooled human, male rat, and male mouse liver microsomes. The in vitro intrinsic clearances of test compounds were determined as well. […]
The figure you give is taken to be in %; do not add the unit.

Examples with their reported Remaining Percentage follow.
1. [2H]C([2H])(c1c[nH]c2ccc(OCCCCCN3C(=O)c4ccccc4C3=O)cc12)[C@H]1CCCN1C([2H])([2H])[2H] [(R) I-245]: 0.62
2. [2H]C([2H])(c1c[nH]c2ccc(OCCCCCN3C(=O)C4CCCCC4C3=O)cc12)[C@H]1CCCN1C([2H])([2H])[2H] (mixture of isomers) [Rac (R) I-248]: 0.95
3. COc1ccc2[nH]cc(CCN(C)C)c2c1 [5-MeO-DMT]: 2.57
4. O=C(O)Cc1ccccc1Nc1c(Cl)cccc1Cl [Diclofenac]: 11.86
5. COCCN1CCC[C@@H]1Cc1c[nH]c2ccc(OC)cc12 [(R) I-98]: 100.00

Next:
IN: Requested field: Remaining Percentage. Item: [2H]C([2H])(c1c[nH]c2ccc(OCCCCN3C(=O)c4ccccc4C3=O)cc12)[C@H]1CCCN1C([2H])([2H])[2H] [(R) I-244]
OUT: 4.90

###

- Experiment: Liver microsomes stability, mouse
- Format: in vitro ADME
- Assay setup: male; Mouse liver microsomes, 2 μM, 0.5 mg/mL, NADPH; >307.01 if % remaining at 30 min below 1%
Reported metric: microsomal CLint at 2 μM

IN: Requested field: microsomal CLint at 2 μM. Item: CSc1ccc2[nH]cc(C[C@H]3CCCN3C)c2c1 [(R) I-1]
OUT: > 307 µL/min/mg

###

AUC(0-t) values, listed per item
- Experiment: Pharmacokinetic studies in rat (i.v.)
- Assay type: in vivo
- Assay setup: male, Sprague-Dawley, plasma, iv, rat plasma, i.v., dose per Dose column, second animal (R08/R05/R02/R11), read-out: AUC0-tlast
- Experimental: Animals: Male Sprague-Dawley rats (˜225-350 g) from Charles River Labs were acclimatized for a minimum of 5 days prior to start of study procedures. Body weights were recorded on the day of dosing. Any abnormalities were documented including presence/absence of wet dog shakes/back muscle contractions (WDS/BMC). Dosing: Formulations were administered intravenously (i.v.) via the tail vein using a 25 G needle connected to a 1 cc syringe. […]
The figure you give is taken to be in ng·h/mL; do not add the unit.

IN: Requested field: AUC(0-t). Item: [2H]C([2H])(c1c[nH]c2ccc(OCCCCN3C(=O)c4ccccc4C3=O)cc12)[C@H]1CCCN1C([2H])([2H])[2H] [(R) I-244]
OUT: 490

IN: Requested field: AUC(0-t). Item: [2H]C([2H])(c1c[nH]c2ccc(OCCCCCN3C(=O)C4CCCCC4C3=O)cc12)[C@H]1CCCN1C([2H])([2H])[2H] (mixture of isomers) [Rac (R) I-248]
OUT: 477

IN: Requested field: AUC(0-t). Item: [2H]C([2H])(c1c[nH]c2ccc(OCCCCCN3C(=O)c4ccccc4C3=O)cc12)[C@H]1CCCN1C([2H])([2H])[2H] [(R) I-245]
OUT: 370

IN: Requested field: AUC(0-t). Item: COCCN1CCC[C@@H]1Cc1c[nH]c2ccc(OC)cc12 [(R) I-98]
OUT: 426
